FYI, the data here is from patent US20110135636A1.

# target-or-system: T1, recombinant human EGFR extracellular domain with 6xHis (human, UniProt P00533 25-645)
# T1 construct: In-house produced; also called 6xHis EGFR ECD; soluble human EGFR ECD; not shown: 6xHis tag
# assay-method-text: SPR competition, competitor Erbitux

{"binder": "antibody 1261 (antibody, human IgG1, kappa, V domains shown, Chimeric IgG1 kappa) VH: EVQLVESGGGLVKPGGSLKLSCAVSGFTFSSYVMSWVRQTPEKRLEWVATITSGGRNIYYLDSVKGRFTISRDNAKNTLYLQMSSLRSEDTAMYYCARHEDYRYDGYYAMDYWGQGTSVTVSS VL: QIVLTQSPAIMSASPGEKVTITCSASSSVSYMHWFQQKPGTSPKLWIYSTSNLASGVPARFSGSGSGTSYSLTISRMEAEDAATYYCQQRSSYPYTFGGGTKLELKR", "% inhibition, %": -2}
{"binder": "antibody 992 (antibody, human IgG1, kappa, V domains shown, Chimeric mouse/human IgG1 kappa; the VL entry includes the human kappa constant region) VH: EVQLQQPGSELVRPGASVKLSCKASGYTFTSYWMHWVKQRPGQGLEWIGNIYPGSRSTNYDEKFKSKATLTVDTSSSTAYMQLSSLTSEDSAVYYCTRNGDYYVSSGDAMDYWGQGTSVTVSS VL: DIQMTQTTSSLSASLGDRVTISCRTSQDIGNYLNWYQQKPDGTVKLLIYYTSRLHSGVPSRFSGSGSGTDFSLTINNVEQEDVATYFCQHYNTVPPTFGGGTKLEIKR", "% inhibition, %": 90}
{"binder": "antibody 1347 (antibody, human IgG1, kappa, V domains shown, Chimeric IgG1 kappa) VH: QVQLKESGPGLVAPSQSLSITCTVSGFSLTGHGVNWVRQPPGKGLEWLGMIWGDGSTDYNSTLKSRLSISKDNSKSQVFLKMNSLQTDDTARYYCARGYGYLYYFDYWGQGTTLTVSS VL: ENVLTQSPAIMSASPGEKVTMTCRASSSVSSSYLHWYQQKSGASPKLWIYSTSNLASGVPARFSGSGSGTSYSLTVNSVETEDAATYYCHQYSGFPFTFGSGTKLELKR", "% inhibition, %": -4}
{"binder": "antibody 1308 (antibody, human IgG1, kappa, V domains shown, Chimeric IgG1 kappa) VH: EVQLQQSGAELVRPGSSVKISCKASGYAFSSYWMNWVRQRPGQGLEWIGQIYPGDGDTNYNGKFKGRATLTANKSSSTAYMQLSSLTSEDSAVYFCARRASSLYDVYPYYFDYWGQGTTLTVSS VL: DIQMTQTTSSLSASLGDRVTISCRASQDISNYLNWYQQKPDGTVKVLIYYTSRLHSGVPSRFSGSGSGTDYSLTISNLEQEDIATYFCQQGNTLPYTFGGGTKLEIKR", "% inhibition, %": -6}
{"binder": "antibody 1042 (antibody, human IgG1, kappa, V domains shown, Chimeric IgG1 kappa; RA- left out of the VH entry) VH: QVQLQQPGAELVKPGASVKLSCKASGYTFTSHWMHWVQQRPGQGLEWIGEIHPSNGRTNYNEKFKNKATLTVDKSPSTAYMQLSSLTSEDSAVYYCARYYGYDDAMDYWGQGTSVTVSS VL: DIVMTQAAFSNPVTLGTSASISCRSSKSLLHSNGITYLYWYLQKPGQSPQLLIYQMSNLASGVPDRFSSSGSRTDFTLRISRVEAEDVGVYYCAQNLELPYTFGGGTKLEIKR", "% inhibition, %": 107}
{"binder": "antibody 1024 (antibody, human IgG1, kappa, V domains shown, Chimeric IgG1 kappa) VH: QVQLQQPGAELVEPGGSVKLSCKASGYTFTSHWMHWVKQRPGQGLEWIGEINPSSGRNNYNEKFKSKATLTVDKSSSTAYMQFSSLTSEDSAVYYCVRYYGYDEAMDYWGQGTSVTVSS VL: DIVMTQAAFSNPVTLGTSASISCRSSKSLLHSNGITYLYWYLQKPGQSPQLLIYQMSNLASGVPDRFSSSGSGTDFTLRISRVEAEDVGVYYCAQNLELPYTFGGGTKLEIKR", "% inhibition, %": 104}
{"binder": "antibody 1260 (antibody, human IgG1, kappa, V domains shown, Chimeric IgG1 kappa) VH: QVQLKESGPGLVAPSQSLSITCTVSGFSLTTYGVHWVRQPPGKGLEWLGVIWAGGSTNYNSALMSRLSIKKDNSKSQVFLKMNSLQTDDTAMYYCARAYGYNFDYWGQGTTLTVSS VL: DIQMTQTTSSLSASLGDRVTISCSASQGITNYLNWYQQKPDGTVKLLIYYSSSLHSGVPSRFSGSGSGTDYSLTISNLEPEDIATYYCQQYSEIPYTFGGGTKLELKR", "% inhibition, %": 8}
{"binder": "antibody 1208 (antibody, human IgG1, kappa, V domains shown, Chimeric IgG1 kappa; also called clone 1208) VH: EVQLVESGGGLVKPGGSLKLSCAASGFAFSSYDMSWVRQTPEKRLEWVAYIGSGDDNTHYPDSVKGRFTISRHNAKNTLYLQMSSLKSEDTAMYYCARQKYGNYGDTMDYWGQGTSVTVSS VL: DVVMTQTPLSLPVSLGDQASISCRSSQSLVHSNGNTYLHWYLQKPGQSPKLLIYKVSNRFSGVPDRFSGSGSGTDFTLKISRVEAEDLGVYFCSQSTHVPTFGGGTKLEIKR", "% inhibition, %": 18}
{"binder": "antibody 1254 (antibody, human IgG1, kappa, V domains shown, Chimeric IgG1 kappa; also called mAb 1254) VH: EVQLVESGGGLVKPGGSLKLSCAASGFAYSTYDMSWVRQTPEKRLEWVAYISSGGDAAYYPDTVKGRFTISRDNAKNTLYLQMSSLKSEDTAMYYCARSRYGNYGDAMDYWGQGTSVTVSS VL: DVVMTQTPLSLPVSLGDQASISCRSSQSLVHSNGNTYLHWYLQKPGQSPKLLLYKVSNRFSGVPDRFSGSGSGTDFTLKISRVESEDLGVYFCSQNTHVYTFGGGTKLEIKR", "% inhibition, %": 44}
{"binder": "antibody 1320 (antibody, human IgG1, kappa, V domains shown, Chimeric IgG1 kappa) VH: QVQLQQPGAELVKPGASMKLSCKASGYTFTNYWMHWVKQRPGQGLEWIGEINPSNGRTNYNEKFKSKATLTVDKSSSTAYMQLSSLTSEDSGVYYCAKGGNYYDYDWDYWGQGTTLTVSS VL: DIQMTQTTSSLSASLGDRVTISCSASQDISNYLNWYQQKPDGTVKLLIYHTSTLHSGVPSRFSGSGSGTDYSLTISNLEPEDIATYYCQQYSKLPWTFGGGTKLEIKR", "% inhibition, %": 2}
